Data provenance: patent US8604206B2

Target of assay: UniProt:P04062
Experiment notes: In situ lysosomal GCase inhibition and washout assay in fibroblasts from a normal subject
Format: cell-based
Test settings: fibroblasts treated at IC90, then drug-free medium
Where a name gives a salt, the structure may show the parent alone.
Listing: in situ washout of selected compounds
Numeric answer only, unit h assumed.

Compound	in situ washout / h
C[C@H](O)[C@H]1CNC[C@@H](O)[C@@H]1O (single isomer, unassigned)	12
CC(O)[C@H]1CNC[C@@H](O)[C@@H]1O (single isomer, unassigned)	10.5
Cl.O[C@H]1[C@H](O)CNC[C@@H]1C(F)F	2.1
C[C@@H](F)[C@@H]1CNC[C@@H](O)[C@@H]1O.Cl	3.7
C[C@H](F)C1CNC[C@@H](O)[C@@H]1O (stereo in doubt) [Cmpd 13, Hydrochloride]	2.7

Now let's try a different one.
State the recorded in situ washout for this entry: `O[C@@H]1[C@@H](Cc2ccccc2)CNC[C@H]1O`
1.2

====

Experiment notes: Rat pharmacokinetics
Type: in vivo
Test settings: male, Sprague-Dawley, plasma, PO, 10 mg/kg free base, read-out: % F
Result type: bioavailability (%)
Give just the numeric value; % need not be written.

Smiles code	Unit tag	Measured value
O[C@@H]1[C@@H](Cc2ccccc2)CNC[C@H]1O	%	61.7

As a next step, examine the compound that follows.
Quick check: bioavailability of `Cl.O[C@H]1[C@H](O)CNC[C@@H]1C(F)F` ?
106

====

Reported Ki by item:
Target of assay: recombinant human GCase (rhGCase; Cerezyme®) (Homo sapiens (Human), UniProt P04062, R534H)
Sequence (P04062 40-536 R534H limits assumed): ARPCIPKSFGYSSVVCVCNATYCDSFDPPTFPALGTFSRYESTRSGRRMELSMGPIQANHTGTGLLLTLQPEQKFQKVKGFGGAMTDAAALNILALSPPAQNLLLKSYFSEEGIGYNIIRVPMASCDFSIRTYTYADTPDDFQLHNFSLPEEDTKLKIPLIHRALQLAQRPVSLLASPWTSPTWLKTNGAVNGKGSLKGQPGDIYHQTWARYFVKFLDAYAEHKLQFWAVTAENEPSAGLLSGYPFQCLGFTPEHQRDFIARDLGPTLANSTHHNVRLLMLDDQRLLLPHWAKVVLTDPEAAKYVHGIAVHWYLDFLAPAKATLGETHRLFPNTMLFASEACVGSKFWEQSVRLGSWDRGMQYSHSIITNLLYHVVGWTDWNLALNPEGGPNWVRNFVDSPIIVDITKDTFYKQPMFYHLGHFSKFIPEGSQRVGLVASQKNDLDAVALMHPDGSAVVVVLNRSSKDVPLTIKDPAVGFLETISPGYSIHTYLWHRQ
Experiment notes: In vitro enzyme inhibition assay (4-MU-β-D-Glc substrate), inhibition constants
Format: biochemical
Test settings: pH 5.2; Cheng-Prusoff from IC50; read-out: Ki (μM) pH 5.2
Please reply with the bare figure in µM and do not write the unit itself.

Example results:
Molecule	Measured value
CC[C@@H](F)[C@H]1CNC[C@@H](O)[C@@H]1O.Cl [hydrochloride]	0.121
O[C@@H]1[C@@H]([C@H](O)c2ccccc2)CNC[C@H]1O	1.36
CC(O)[C@H]1CNC[C@@H](O)[C@@H]1O (single isomer, unassigned)	0.044
O[C@@H]1[C@@H](Cc2ccccc2)CNC[C@H]1O	0.273
CC(C)(O)[C@H]1CNC[C@@H](O)[C@@H]1O	0.097

recombinant human GCase (rhGCase; Cerezyme®) (Homo sapiens (Human), UniProt P04062, R534H) / Ki / C[C@@H](F)[C@@H]1CNC[C@@H](O)[C@@H]1O.Cl [Cmpd 14, Hydrochloride] : value?
0.016

Likewise for C[C@H](O)[C@H]1CNC[C@@H](O)[C@@H]1O (single isomer, unassigned) ?
0.142

====

Experiment notes: Rat pharmacokinetics
Format: in vivo
Test settings: male, Sprague-Dawley, plasma, PO, 30 mg/kg free base, AUC0-24 hr, read-out: AUClast (hr*ng/ml), AUC0-24 hr
Result type: AUC(0-t) (ng·h/mL)
Reply with just the number (in ng·h/mL).

Compound	AUC(0-t), ng·h/mL
O[C@@H]1[C@@H](Cc2ccccc2)CNC[C@H]1O [(3R,4R,5S)-5-benzyl-piperidine-3,4-diol]	3690

Please examine the following record next.
I'd like to know its AUC(0-t). The compound in question is Cl.O[C@H]1[C@H](O)CNC[C@@H]1C(F)F [Cmpd 6]
21700
